Give measured melting point for each item. Keep answers brief.

CNC(=O)c1ccccc1Nc1nc(Nc2c(OC)ccc3c2C(=O)N(C)CCC3)ncc1Cl    185 to 187 °C
COc1ccc2c(c1)NC(=O)C(CCCN1CCN(c3ccc(F)cc3)CC1)O2 (centres undefined)    153 to 154 °C
CS(=O)(=O)c1ccc(-c2cnn(-c3cccc(Cl)c3)c(=O)c2COC(=O)c2ccccc2)cc1    50 to 70 °C
O=c1c(C2=Nc3ccccc3S(=O)(=O)N2)c(O)c2ccccc2n1CC1CCCC1    255 to 256 °C
COc1ccc(NS(=O)(=O)c2ccc(OC)c3c2c2ccccc2n3C=O)cc1    190 to 192 °C

Count: 6. Required value per item: melting point.
1. CC(Cc1nc(-c2ccccc2)nc2ccccc12)C(=O)N(C)C(C)C (centres undefined)
2. CCOC(=O)/C=C/c1ccc2oc(Cc3nc(-c4ccccc4)oc3C)cc2c1
3. COCc1c(C(=O)c2ccccc2)ncc2[nH]c3ccc(O)cc3c12
4. O=C(Nc1ncco1)c1cnc2c(C(F)(F)F)cccc2c1O
5. CNC(=O)NC1CCC(=O)c2sccc21 (centres undefined)
6. Cc1ccc(N2CN(C(=O)c3ccccc3)C3=NN=CC3=C2N)cc1

# output
1: 171 °C; 2: 150 to 151 °C; 3: 258 °C; 4: 304 °C; 5: 212 to 215 °C; 6: 297 to 300 °C

Count: 2. Required value per item: melting point.
1. CCN(CC)C(=O)n1cc(F)c(S(=O)(=O)c2c(Cl)cc(Cl)cc2Cl)n1
2. CCN(CC)c1ccc2cc(C(=O)OCCCCCCO)c(=O)oc2c1

# output
89 to 90 °C
85 to 86 °C

----------
Give measured melting point for each item. Keep answers brief.

CCOC(=O)C1(O)CC(C(F)(F)F)=NN1c1ncccc1Cl (stereo not drawn)    78 to 78.5 °C

Count: 5. Required value per item: melting point.
1. CN1CCN(c2nc3sc4c(NCc5cccnc5)ncnc4c3c3c2COC(C)(C)C3)CC1
2. COc1ccc2c(c1)C(c1ccc(Cl)cc1)=NC(CC(=O)NC1CCCCC1)c1nnc(C)n1-2 (stereo not drawn)
3. Nc1nn(CCN2CCCCC2)cc1-c1ccccc1
4. O=C(O)Cc1c(C(=O)O)c2cc(Oc3cccc(Cl)c3)ccc2n1-c1ccccc1
5. CN1CCC(OC(c2cccc(N)c2)c2nc3ccccc3[nH]2)CC1 (stereo not drawn)

# output
1: 251 to 252 °C; 2: > 260 °C; 3: 96 °C; 4: 192 to 194 °C; 5: 100 °C

----------
Give measured melting point for each item. Keep answers brief.

Count: 3. Required value per item: melting point.
1. COc1ccc2c(c1)C(N1CCCC1=O)NN=C2Cc1c(Cl)cncc1Cl (stereo not given)
2. Cc1nc(=O)c(O)c(-c2ccc(Cc3ccc(F)cc3)cn2)[nH]1
3. Cc1cccc2nc(C(S)c3ncnc4[nH]cnc34)n(-c3ccccc3F)c(=O)c12 (stereo not given)

# output
1. 223 to 225 °C
2. > 300 °C
3. 152 °C

Count: 5. Required value per item: melting point.
1. CC(=O)NC=Nc1ccc2nnc(-c3ncc([N+](=O)[O-])n3C)n2n1
2. NCCc1ccc(C(=O)CCC(=O)O)cc1
3. Cc1ccc(C(=O)NCCO)cc1-n1c(C)cc(OCc2ccccc2CNC(=O)Nc2cc(C(C)(C)C)nn2-c2cccc(OCCO)c2)c(Cl)c1=O
4. Clc1ccc2c(c1)CSc1ccccc1O2
5. O=C(Nc1ccc([N+](=O)[O-])cc1)c1ccccc1Br

# output
1: 237 to 241 °C; 2: 234 to 235 °C; 3: 162 to 163 °C; 4: 66.8 °C; 5: 200 to 202 °C

Count: 2. Required value per item: melting point.
1. Cn1nc(S(C)(=O)=O)c(=O)c2ccc(Cl)cc21
2. Cc1ccc(S(=O)(=O)NCCCCOc2ccc([N+](=O)[O-])cc2)cc1

# output
["270 to 272 °C", "87 to 88 °C"]

----------
Give measured melting point for each item. Keep answers brief.

CCOC(=O)C1=C(C)NC(c2sc(C)nc2C)=NC1c1ccc(F)cc1Cl (stereo not given)    117 to 119 °C

Count: 2. Required value per item: melting point.
1. CCCOc1ccc(CCNC(=O)C=Cc2ccc(Cl)cc2Cl)cc1OCCC
2. O=C1CNc2ncc(-c3cccnc3)cc2N1Cc1c(Cl)cccc1Cl

# output
["132 to 134 °C", "> 200 °C"]

Count: 3. Required value per item: melting point.
1. CCC(=O)c1c(C(C)C)nn2ccccc12
2. CN1CCN(C(=O)c2ccc3n2Cc2ccc(C(=O)O)cc2N(C(=O)c2ccc(C4CCCCC4)cc2)C3)CC1
3. CCCCCCn1c(-c2ccc(Cl)c(S(=O)(=O)N(C)C)c2)csc1=Nc1ccccc1

# output
1: 41 to 42 °C; 2: 195 to 210 °C; 3: 86 °C

Count: 8. Required value per item: melting point.
1. N#CCSc1nnc2ccccn12
2. CSc1cn(C(c2ccccc2)(c2ccccc2)c2ccccc2)c(F)n1
3. Cc1c(Br)c2cnnc(OCc3ccc(F)cc3)c2n1Cc1ccccc1
4. CC(C)(C)c1cc(C(c2ccc(C#N)cc2)N2CCCCC2)c(O)c(C(C)(C)C)c1 (stereo not given)
5. CNC(=S)NCCCSc1nnnn1C
6. COC(=O)C1CCC2(C3(C)OCCO3)CC1C(=O)O2 (stereo not given)
7. O=C(NCCC1CCN(c2noc3cc(Cl)ccc23)CC1)c1nsc2ccccc12
8. CC(Sc1nc(N)c(Br)c(Cl)n1)c1cc2ccccc2cn1 (stereo not given)

# output
1: 121 to 123 °C; 2: 142 to 143 °C; 3: 128 to 130 °C; 4: 165 to 166 °C; 5: 99 to 101 °C; 6: 69 to 71 °C; 7: 132 to 134 °C; 8: 173 to 174 °C

Count: 6. Required value per item: melting point.
1. NC(=O)N1C(=O)C(C(=O)c2ccoc2)c2ncc(Cl)cc21 (stereo not given)
2. O=C(c1ccn2c1CSC2c1cccnc1)c1cn(CCO)c2cc(-c3ccc(F)cc3)ccc12 (stereo not given)
3. O=C(NCC1Cc2cc(Cl)c3c(c2O1)CCC3)OCc1ccccc1 (stereo not given)
4. C[Si]1(C)CCCCCCCC[Si](C)(C)O[Si](C)(C)CCCCCCCC[Si](C)(C)O1
5. FC(F)(F)c1csc(I)n1
6. O=S(=O)(c1ccccc1)C(F)(F)C(F)Cl (stereo not given)

# output
> 250 °C
170 to 171 °C
118 to 121 °C
67 to 69 °C
35.5 to 36 °C
38 to 39 °C

----------
ASSAY_READOUT: melting point

Worked set:
CCn1nnnc1C(C=O)=C(c1ccc(F)cc1)c1ccc(F)cc1    144 to 145 °C
O=C(O)c1cnn2c(C(F)F)cc(-c3ccc(C(F)(F)F)cc3)nc12    261 °C

Count: 3. Required value per item: melting point.
1. Nc1ccc2nc(-c3ccccc3)oc2n1
2. CCOC(=O)[C@H](C[C@H](Cc1ccc(OC)c(OCCCOC)c1)C(C)C)NC(=O)OC(C)(C)C
3. O=CNCc1ccc2[nH]cc(CCN3C(=O)c4ccccc4C3=O)c2c1

# output
1: 210 °C; 2: 59 to 60 °C; 3: 45 °C

Count: 8. Required value per item: melting point.
1. CCCCN=C(N)Nc1nc(C)cc(C)n1
2. O=C(O)c1c(Cl)ccc2c1OCCO2
3. CC(CO)N1C(=O)N(c2ccc(Cl)cc2)CC1C (centres undefined)
4. Cc1oc(C=Cc2ccc(Cl)cc2)nc1CO
5. CC(C)(C)OC(=O)CN(C(=O)CN1C(=O)c2ccccc2C1=O)c1ccccc1
6. CN(C)c1ccc(/C=C/c2c(F)cccc2F)c([N+](=O)[O-])c1
7. CCC(C)CC1OC(CC(=O)Nc2ccc(F)c(CCC(=O)O)c2)C(=O)N(CC(C)(C)CO)c2ccc(Cl)cc21 (centres undefined)
8. COc1ccccc1OCC(O)CN1CCC2(CC1)CNC(=O)O2 (centres undefined)

# output
["185 °C", "162 °C", "108 to 110 °C", "129 to 130 °C", "126 °C", "152 to 153 °C", "123 to 125 °C", "124 to 125 °C"]

----------
Give measured melting point for each item. Keep answers brief.

Worked set:
CC(=O)N1CCN(Cc2ccc(O)cc2)CC1    130 to 132 °C
O=C1CCSC(=S)N1c1c(F)c(F)c(F)c(F)c1F    164 °C
COC(=O)c1ccc2oc(CCl)c(C)c2c1    114 to 115 °C

Count: 2. Required value per item: melting point.
1. CC(=O)ON1C(C)(C)CC(OC(=O)c2ccccc2C(=O)OC2CC(C)(C)N(OC(C)=O)C(C)(C)C2)CC1(C)C
2. CC(C)C(=O)N(O)C(c1ccccc1)c1cc(C(C)(C)C)c(O)c(C(C)(C)C)c1 (centres undefined)

# output
["172 to 175 °C", "179 to 180 °C"]
